Each recorded value in this set is attributed to ChEMBL document CHEMBL1201862.

Provide the reported GI50 of each item.
Test system: OVCAR-3
Assay: NCI tumour cell line growth inhibition, 48 h
The source made the active and inactive calls. Cut-off read from the data, not from the text of the source: active = GI50 up to about 1.1 µM and inactive = higher.

// query Reported GI50 for Cc1ccc(NC(Nc2ccc(C)cc2C)=C(C(Cl)=C(Cl)Cl)[N+](=O)[O-])c(C)c1 : what is it?
// result 15.4 µM (inactive)

// query Param item: O=C1[C@@H]2C(c3cccc([N+](=O)[O-])c3)=NO[C@@H]2C(=O)N1c1ccc(Cc2ccc(N3C(=O)[C@H]4C(c5cccc([N+](=O)[O-])c5)=NO[C@H]4C3=O)cc2)cc1
// result > 100 µM (inactive)

// query Query Cc1ccc(C(=O)CC(O)(C(F)(F)F)C(F)(F)F)cc1[N+](=O)[O-] next
// result 2.2 µM (inactive)

// query Entry to check: Nc1ccc(Nc2cc(O)nc(O)n2)cc1
// result > 100 µM (inactive)

// query Thanks! And CCC(C)(C)C1CCC2c3c([nH]c4ccccc34)C3C(=O)N(c4ccc(OC)cc4)C(=O)C3C2C1 (stereo not drawn) ?
// result 2.19 µM (inactive)

// query Please do the same for Cn1c2ccccc2c2c(=S)c3ccccc3ccc21 as well.
// result 17.8 µM (inactive)

// query How about this compound: CCCCCCCC(CC(=O)NC(CO)C(=O)NC(CO)CC(C)C)OC(=O)CC(CCCCCCC)OC(=O)CC(CCCCCCC)OC1OC(C)C(O)C(OC2OC(C)C(O)C(OC(C)=O)C2O)C1O (stereo not drawn)
// result 10.7 µM (inactive)

// query Quick one: CCOC(=O)/C(C)=C(/O)C(=O)OCC
// result > 100 µM (inactive)

----------
Test system: SK-OV-3
Assay: NCI tumour cell line growth inhibition, 48 h
Active and inactive are the calls of the source. Rule as the data show it: active = GI50 up to about 1.1 µM and inactive = higher.
quantityMeasured: GI50

// query Param item = O=[N+]([O-])c1cnn(C2=CNc3ccccc3N=C2)c1 ; retrieve measured GI50.
// result > 100 µM (inactive)

// query Please answer likewise for C=C(C)CCC1C=[N+]([O-])OC(C)(C)C1(C)C (centres undefined)
// result > 100 µM (inactive)

// query And then NC(=S)N1N=C2c3ccccc3CC[C@@H]2[C@@H]1c1ccccc1 , what is it?
// result 9.73 µM (inactive)

// query Please do the same for CCC(C)(C)C1CCC2c3c([nH]c4ccccc34)C3C(=O)N(c4ccc(OC)cc4)C(=O)C3C2C1 (centres undefined) as well.
// result 31.9 µM (inactive)

// query Do the same for CC(C)=C/C(CC(O)(C(F)(F)F)C(F)(F)F)=N\O please
// result > 100 µM (inactive)

// query Could you do the same for N#C/C(=C1\SCC(=O)N1c1ccccc1)c1nc2ccccc2[nH]1 , please?
// result > 100 µM (inactive)

// query Now give it for Cc1ccc(C(=O)N2CCN(C(=O)c3ccc(C)cc3)c3ccccc32)cc1 too.
// result 2.89 µM (inactive)

// query // query: COc1cc(/C=C/c2ccc(OC)c(OC)c2)oc(=O)c1
// result > 250 µM (inactive)

// query Same for C[n+]1c2ccccc2c(NC(CS)C(=O)O)c2ccccc21 (centres undefined)
// result 23.3 µM (inactive)

// query // repeat for CC(=O)OC1CC[C@@]2(C)C(CC[C@]3(C)C2CC=C2[C@@H]4C(C)[C@H](C)CCC4(C)CCC23C)[C@@]1(C)C(=O)O (some centres undefined) and report
// result 18.4 µM (inactive)

// query Another: CC(NC(=O)OCc1ccccc1)NC(=O)C(CC(=O)OC(C)(C)C)NC(=O)OC(C)(C)C (centres undefined)
// result > 100 µM (inactive)

// query Would you kindly repeat that for COC(CO[Si](C)(C)N[Si](C)(C)OCC(OC)c1ccccc1)c1ccccc1 (centres undefined) ?
// result > 100 µM (inactive)

// query Also CC(=O)C(C(=O)c1ccc(C)cc1)[C@@H]1OC(C)(C)O[C@@H]1[C@H]1COC(C)(C)O1 (some centres undefined) , if possible.
// result 51.2 µM (inactive)

// query Repeat for the following molecule: COC1O[C@@H]2COC(C)(C)O[C@@H]2C(=O)N1Nc1ccc([N+](=O)[O-])cc1 (some centres undefined)
// result > 100 µM (inactive)

// query Then this molecule: CCOC(=O)C(NC(=O)Nc1ccc(C)cc1)(OCC)C(F)(F)F (centres undefined)
// result > 100 µM (inactive)

// query Quick one: CCOC(=O)C1C(c2ccccc2)C2(C#N)C(=N)OC1(C)C2(C#N)C#N (centres undefined)
// result > 100 µM (inactive)

// query Then what about the molecule CC(C)(C)CC(C)(C)NCC(O)COc1ccc(C(C)(C)c2ccc(OCC(O)CNC(C)(C)CC(C)(C)C)cc2)cc1 (centres undefined) ?
// result 1.77 µM (inactive)

// query Now give it for CCOC(=O)NC(Nc1ccc(S(=O)(=O)Nc2nc(C)cc(C)n2)cc1)(C(=O)OCC)C(F)(F)F (centres undefined) too.
// result > 100 µM (inactive)

// query Could you do the same for O=C1[C@@H]2C3C=CC([C@H]4C(=O)N(CO)C(=O)[C@@H]34)[C@@H]2C(=O)N1CO , please?
// result > 100 µM (inactive)

----------
Test system: HL-60
Test: NCI tumour cell line growth inhibition, 48 h
Calls of active or inactive are those of the source. Cut-off read from the data, not from the text of the source: active = GI50 up to about 1.1 µM and inactive = higher.
Give one outcome, nothing more. List: 1 (active), -1 (inactive)

// query Per the records of this test, what outcome belongs to O=C1CSC(=S)N1c1ccco1 ?
// result -1

// query What about Cc1ccnc2[nH]c3ccccc3c(=O)c12 ?
// result -1

// query Queued: CC1(C)C(=O)/C=C\C(=O)C(C)(C)C(=O)/C=C\C(=O)C(C)(C)C2=CC=C(O2)C(C)(C)C(=O)/C=C\C1=O
// result 1

// query Would you mind doing C[C@@H](NC1CCCC[C@@H]1O)c1ccccc1 (stereo not given in full) as well?
// result -1

// query What would you report for COc1ccc(/C=C(/c2ccccc2)c2c(C)cc(C)c(/C(=C\c3ccc(OC)cc3)c3ccccc3)c2/N=N/c2cc(C)cc(C)c2)cc1 ?
// result -1

// query Repeat with Cc1cc(OCC(=O)O)c(Cl)cc1Cl
// result -1

// query How about this compound: Cc1ccc(-c2cn3c(nc4ccccc43)c(/C=C/c3ccco3)n2)cc1
// result -1

// query Next entry: O=C(O)CC(NC(=O)/C(=C/c1ccccc1O)NC(=O)c1ccccc1)C(=O)O (stereo not given)
// result -1

// query Queued: CN(C)c1ccc(/C=N/c2ccc(-c3nc4ccccc4[nH]3)cc2)cc1
// result -1

// query Follow-up item: CC1(C)C(=O)C2(OS(=O)(=O)C(F)(F)F)CCC1C2 (stereo not given)
// result -1

----------
Assign GI50 to each entry below.
System: MDA-MB-435
Assay: NCI tumour cell line growth inhibition, 48 h
Calls of active or inactive are those of the source. No stated cut-off is given here; in the data, active = GI50 up to about 1.1 µM and inactive = higher.

// query Which GI50 is listed for CCOC(=O)c1[nH]c2nc(SC)nc(NC)c2c1N ?
// result > 100 µM (inactive)

// query Do the same for CC1=C(OC2OC(CO)C(O)C(O)C2O)C(=O)C[C@H]2C1=CC[C@@H]1[C@@]2(C)C(=O)C[C@]2(C)[C@@H]([C@@](C)(O)C(=O)CCC(C)(C)O)[C@H](O)C[C@@]12C (some centres undefined) please
// result > 100 µM (inactive)

// query Repeat for the following molecule: COc1cc(C2SCC(=O)N2c2ccc(Oc3ccc(Cl)cc3)c(Cl)c2)cc(OC)c1OC (centres undefined)
// result 16 µM (inactive)

// query Entry to check: c1ccc2cc(OCC3CO3)c(OCC3CO3)cc2c1 (centres undefined)
// result 10.1 µM (inactive)

----------
Tested on: TK-10
Assay: NCI tumour cell line growth inhibition, 48 h
Calls of active or inactive are those of the source. Rule as the data show it: active = GI50 up to about 1.1 µM and inactive = higher.
Provide the reported GI50 of each item.

// query I have this compound here, Cc1c2c(cc[n+]1C)O[B-](c1ccccc1)(c1ccccc1)O2 , and I need its recorded GI50.
// result 55.2 µM (inactive)

// query Param item: Cc1ccc(Cc2n[nH]c(=O)n2Nc2ccccc2)cc1
// result > 100 µM (inactive)

// query One more compound: CC1=NN(C(=O)CC(=O)Nc2ccccc2)C(=O)C1/N=N/c1ccc(C(=O)O)cc1 (stereo not given)
// result > 100 µM (inactive)

// query And CC1=C2C(=O)[C@H]3[C@@H](CC=C4C[C@@H](O)CC[C@@]43C)[C@@H]2CC[C@]12O[C@@H]1C[C@H](C)CN[C@H]1[C@H]2C [JERVINE] ?
// result > 37.2 µM (inactive)

// query Please answer likewise for CC(O)C(O)C(O)C(/C=N\Nc1ccccc1)=N/Nc1ccccc1 (stereo not given)
// result 12.6 µM (inactive)

// query Please answer likewise for N#CC1=C(S)N(C2OC(CO)C(O)C(O)C2O)C(c2ccccc2)=CC1c1ccco1 (stereo not given)
// result 44.1 µM (inactive)

// query What about O=P1(c2ccccc2)c2ccccc2-c2ccccc21 ?
// result > 100 µM (inactive)

// query Repeat for the following compound: c1ccc2cc(OCC3CO3)c(OCC3CO3)cc2c1 (stereo not given)
// result 12.1 µM (inactive)

// query Also CCc1ccc2c(c1)/C(=C1/Nc3ccccc3/C1=N/O)C(=O)N2 ?
// result 11.5 µM (inactive)

// query Would you kindly repeat that for CC1(C)C(=O)C2(OS(=O)(=O)C(F)(F)F)CCC1C2 (stereo not given) ?
// result > 100 µM (inactive)
